# Test system: human GBM cell lines
# TEST NAME: Panel of human GBM cell lines, viability
# Format: cell-based
# RUN CONDITIONS: read-out: IC50 in cell lines with significant MGMT expression
pIC50: −log10 of the molar value.

COMPOUND	pIC50
Cn1nnc2c(C(N)=O)ncn2c1=O [TMZ, temozolomide]	< 3.52

---

# TEST NAME: in vivo blood-brain barrier permeability
# RUN CONDITIONS: CD-1 IGS, mouse, brain and serum, iv, 25 mg/kg

MOLECULE	Kp at 5 min
Cn1nnc2c(C(N)=O)ncn2c1=O [TMZ, temozolomide]	0.23
